Recorded melting point values for a group of compounds are listed next.
attribute-measured: melting point

- compound: "CCC1(CC)NC(=O)N(CC(=O)O)C1=O"
  measurement: "169 to 173 °C"
- compound: "O=C(Nc1cccc(O)c1)c1ccco1"
  measurement: "164 to 166 °C"
- compound: "O=C(O)c1cccnc1Sc1ccc(Br)cc1"
  measurement: "223 to 225 °C"
- compound: "O=C(O)CCSc1ccccc1Br"
  measurement: "104 to 106 °C"
- compound: "CCCc1cc(C(=O)O)sc1C"
  measurement: "94 to 96 °C"
- compound: "O=C(O)c1ccc(Cl)c(I)c1"
  measurement: "212 to 214 °C"
- compound: "CC(C)c1nc(C(=O)O)nn1-c1cccc(F)c1"
  measurement: "93 to 95 °C"
- compound: "Nc1ccc(NCCCC(=O)O)cc1"
  measurement: "148 to 150 °C"
- compound: "CCOc1ccc(N(C)S(=O)(=O)c2ccc(C)c(C(=O)O)c2)cc1"
  measurement: "175 to 177 °C"
- compound: "CCCCc1ccc(CC(=O)O)cc1"
  measurement: "78 to 80 °C"
- compound: "CCCN1CCc2c(sc(N)c2C(=O)OCC)C1"
  measurement: "69 to 73 °C"
- compound: "CC(NC(=O)c1ccc2[nH]ncc2c1)C(=O)O (stereo not drawn)"
  measurement: "229 to 231 °C"
- compound: "O=C(O)Cc1ccc(NS(=O)(=O)c2ccc(Cl)c(Cl)c2)cc1"
  measurement: "174 to 176 °C"

---

attribute-measured: melting point

- compound: "O=C(O)CCNC(=O)OCc1ccccc1"
  attribute-measured: "melting point"
  measurement: "104 to 108 °C"
- compound: "Nc1ccc(-c2nc3ccccc3[nH]2)cc1"
  attribute-measured: "melting point"
  measurement: "218 to 222 °C"
- compound: "CCc1ccc(-c2nn(-c3ccccc3)cc2C(=O)O)cc1"
  attribute-measured: "melting point"
  measurement: "208 to 210 °C"
- compound: "COC(=O)C1(C)CCc2ccccc2C1=O (centres undefined)"
  attribute-measured: "melting point"
  measurement: "56 to 58 °C"
- compound: "Cc1cc(-n2cccc2)ccc1C(=O)O"
  attribute-measured: "melting point"
  measurement: "150 to 152 °C"
- compound: "O=C(O)C1CSC(c2ccc(Cl)s2)N1 (centres undefined)"
  attribute-measured: "melting point"
  measurement: "149 to 151 °C"
- compound: "Cc1ccccc1NC(=O)NN"
  attribute-measured: "melting point"
  measurement: "141 to 143 °C"
- compound: "O=[N+]([O-])c1cccc(-c2nn[nH]n2)c1"
  attribute-measured: "melting point"
  measurement: "154 to 156 °C"
- compound: "CC(C)C(C(=O)O)n1cncn1 (centres undefined)"
  attribute-measured: "melting point"
  measurement: "177 to 179 °C"
- compound: "c1ccc2c(c1)C1CCC2N1"
  attribute-measured: "melting point"
  measurement: "92 to 94 °C"
- compound: "CCCc1cnc(N)s1"
  attribute-measured: "melting point"
  measurement: "43 to 45 °C"
- compound: "O=C(O)c1ccccc1NCc1cccnc1"
  attribute-measured: "melting point"
  measurement: "189 to 191 °C"
- compound: "O=C(O)c1c(-n2cccc2)sc2c1CCSC2"
  attribute-measured: "melting point"
  measurement: "169 to 171 °C"
- compound: "CNS(=O)(=O)c1c[nH]c(=O)[nH]c1=O"
  attribute-measured: "melting point"
  measurement: "279 to 281 °C"
- compound: "Cn1ccnc1C(O)(CC(=O)O)C(F)(F)F (centres undefined)"
  attribute-measured: "melting point"
  measurement: "186 to 188 °C"
- compound: "COc1cc(C)nc(CO)c1"
  attribute-measured: "melting point"
  measurement: "69 to 71 °C"
- compound: "COCC(C)C(N)=S (centres undefined)"
  attribute-measured: "melting point"
  measurement: "42 to 44 °C"
- compound: "CC(C)(C)OC(=O)Nc1cccc(Cl)n1"
  attribute-measured: "melting point"
  measurement: "74 to 76 °C"
- compound: "Clc1cccc2c(CBr)csc12"
  attribute-measured: "melting point"
  measurement: "84 to 86 °C"
- compound: "O=C(O)C(Sc1ccc(F)cc1)c1ccccc1 (centres undefined)"
  attribute-measured: "melting point"
  measurement: "84 to 86 °C"
- compound: "N#Cc1csc(C(=O)O)c1"
  attribute-measured: "melting point"
  measurement: "224 to 226 °C"
- compound: "Cc1noc2nc(-c3ccccc3C(F)(F)F)cc(C(=O)O)c12"
  attribute-measured: "melting point"
  measurement: "170 to 172 °C"
- compound: "Cc1[nH]c2c(C(=O)O)cccc2c1C"
  attribute-measured: "melting point"
  measurement: "206 to 208 °C"
- compound: "O=C1C2CC1CN(Cc1ccccc1)C2"
  attribute-measured: "melting point"
  measurement: "64 to 66 °C"
- compound: "Cc1cccc([N+](=O)[O-])c1F"
  attribute-measured: "melting point"
  measurement: "19 to 21 °C"
- compound: "O=C(O)c1csc(-c2ccccc2)c1"
  attribute-measured: "melting point"
  measurement: "184 to 186 °C"
- compound: "O=C(O)c1ccc(OCc2cscn2)cc1"
  attribute-measured: "melting point"
  measurement: "191 to 193 °C"
- compound: "CC(C)C(Br)C(=O)N1CCC(C(N)=O)CC1 (centres undefined)"
  attribute-measured: "melting point"
  measurement: "172 to 174 °C"
- compound: "Oc1ncnc(Cl)c1I"
  attribute-measured: "melting point"
  measurement: "274 to 276 °C"

Data origin: a melting point compilation (Tetko et al.)
